# Test system: NCI-H460 lung
# procedure-text: NCI tumour cell line growth inhibition, 48 h
Assignment: determine reported TGI for the given molecules.

Ask: What measured TGI goes with COc1ccc2c3c(Nc4ccc(/C(C)=N/O)cc4)[nH]c4ccccc4c-3c(N=O)c2c1 ?
Reply: > 100 µM

Ask: What value of TGI has been recorded for this entry: COc1cc([C@@H]2c3cc4c(cc3[C@@H](c3c(O)cc(O)c5c3O[C@H](c3ccc(O)c(O)c3)[C@@H](O)C5)[C@H]3COC(=O)[C@H]23)OCO4)cc(OC)c1O
Reply: > 100 µM

Ask: Entry under review: C=CCn1c2c(sc1=S)C(S)N=CN2 (centres undefined) . Reported TGI?
Reply: > 100 µM

Ask: Name the reported TGI value associated with the molecule CCOC(=O)/C(=C/c1cccc(C#N)c1)N(CC)CC
Reply: > 100 µM

Ask: I have this molecule here, O=C(O)CN(c1ccccc1)S(=O)(=O)c1ccc([N+](=O)[O-])cc1 , and I need its recorded TGI.
Reply: > 100 µM

Ask: Would you mind telling me what TGI value was observed for CC/C=C/C/C=C/C/C=C/C/C=C/C/C=C/C/C=C/CCC(=O)Nc1ccn([C@@H]2O[C@H](CO)[C@@H](O)C2(F)F)c(=O)n1 ?
Reply: 12.1 µM

Ask: Entry under review: Cc1cn2c(C)csc2c1P(=O)(OC(C)C)OC(C)C . Reported TGI?
Reply: > 100 µM

Ask: Value lookup for TGI; key = O=C(CCc1cccc(O)c1)NCCCNC(=O)CCc1cccc(O)c1
Reply: > 100 µM

Ask: What value of measured TGI is listed for OC1(c2ccc(Cl)cc2)c2ccc(CN3CCCC3)cc2C2=NCCN21 (centres undefined) ?
Reply: 29.1 µM

* * *

# Tested on: MALME-3M melanoma
# procedure-text: NCI tumour cell line growth inhibition, 48 h
Hi there, I'd appreciate the recorded TGI for every entry that follows.
Numeric only. Scale: µM

Ask: Could you share which TGI value was measured for C[C@]12CC[C@H](O)C=C1CC[C@@H]1[C@@H]2CC[C@]2(C)C(c3ccc(=O)oc3)CC[C@]12O (stereo not given in full) ?
Reply: 0.014

Ask: Value lookup for TGI; key = COc1ccc2c(Oc3ccc(NC(=O)c4c(C)n(CC(C)(C)O)n(-c5ccccc5)c4=O)nc3)ccnc2c1
Reply: 51.1

Ask: Returns the measured TGI for the input molecule. Input: CCCCCc1ccc(S(=O)(=O)Nc2cc(-c3csc(NC(C)=O)n3)ccc2N2CCN(C)CC2)cc1
Reply: 9.11

Ask: May I ask what TGI has been recorded for O=C1C(Cl)=C(Nc2ccccc2O)C(=O)N1Cc1ccccc1 ?
Reply: 40.4

* * *

# Tested on: TK-10 renal
# procedure-text: NCI tumour cell line growth inhibition, 48 h
Please respond with reported TGI for every item in the list.

Ask: I'm curious: which TGI was measured for CC1=C(c2cc(C(=O)Nc3ccc(Cl)cc3)nc(=S)[nH]2)Sc2ccccc2N1 tested on TK-10 renal?
Reply: > 100 µM

Ask: Lab note: need TGI with TK-10 renal for entry Oc1ccc(Br)cc1C=Nc1ccc(N=Cc2cc(Br)ccc2O)cc1 , please look it up.
Reply: > 100 µM

Ask: Item O=C(CSC(c1ccccc1)c1ccccc1)N/N=C/c1ccco1 with TK-10 renal - TGI?
Reply: 7.62 µM

Ask: Record CCOC(=O)C1(C(=O)OCC)CCCN1C(=O)[C@H](CNC(=O)OC(C)(C)C)NC(=O)OCc1ccccc1 : what is its TGI with TK-10 renal?
Reply: > 100 µM

Ask: Recorded TGI for COc1cc(C=C2C(=O)NC(=S)NC2=O)cc(OC)c1OC with TK-10 renal, please?
Reply: > 100 µM

Ask: Fill in the recorded TGI for this compound, with TK-10 renal as test system: COC1=C(Br)C(=O)c2nc(C)ccc2C1=O
Reply: 32.4 µM

Ask: Lab request: please report TGI under test system TK-10 renal for S=C1CC(c2ccccc2)Sc2ccc(Cl)cc2N1 (stereo not drawn)
Reply: > 100 µM

Ask: Checklist item: TGI tested on TK-10 renal, entry c1ccc(C2=Nn3c(CCCCCCCCc4nnc5n4N=C(c4ccccc4)CS5)nnc3SC2)cc1 , value?
Reply: 79 µM

Ask: Test system TK-10 renal; read-out TGI; what value for O=[N+]([O-])c1ccc(C2=Nc3ccccc3SC(c3ccccc3)C2)cc1 (stereo not drawn) ?
Reply: > 100 µM

Ask: Form field - read-out: TGI; system: TK-10 renal; submitted item: CC(C)CCn1nc(N)c2nc3ccccc3nc21
Reply: > 100 µM

Ask: Please provide the recorded TGI for O=C1CCCc2cc3c(cc21)CC1(C3)Cc2ccc3c(c2C1)C(=O)CCC3 (stereo not drawn) , tested on TK-10 renal.
Reply: > 100 µM

Ask: For TK-10 renal, provide TGI of COc1cc(C2C(C(=O)Nc3cc(F)c(F)cc3F)=C(C)NC(C)=C2C(=O)Nc2cc(F)c(F)cc2F)ccc1O please.
Reply: 87.9 µM

Ask: Return TGI measured with TK-10 renal given this compound: Cc1ccc(-c2c(C#N)c(-c3ccc([N+](=O)[O-])cc3)c(C#N)c(=O)n2NS(=O)(=O)c2ccccc2)cc1
Reply: > 100 µM

Ask: Form: Entry = O=c1n(Cc2ccccc2)c(=O)n2c(=O)n(Cc3ccccc3)c(=O)n12 | System = TK-10 renal | TGI = ____
Reply: > 100 µM

Ask: What measured TGI is associated with CCc1nc2cc3cccnc3c(Cl)c2[nH]c1=O on TK-10 renal?
Reply: > 100 µM

Ask: API: value(readout= TGI, system= TK-10 renal, query= N#CC(=N)c1ncn(-c2ccccc2N)c1N )
Reply: > 100 µM

Ask: Hi! What's the reported TGI for C/C(CCn1[nH]c(=O)ccc1=O)=N\OCCCc1ccccc1 on TK-10 renal?
Reply: > 100 µM

Ask: Missing value: TGI, TK-10 renal, entry Cc1c(C#N)c(N)n(C2OCC(O)C(O)C2O)c(=S)c1C#N (stereo not drawn) . Fill in?
Reply: > 100 µM
